Data provenance: PubChem BioAssay AID1671202

Target: Huntingtin (Homo sapiens) (UniProt P42858)
Sequence (P42858 whole entry, looked up, change not shown): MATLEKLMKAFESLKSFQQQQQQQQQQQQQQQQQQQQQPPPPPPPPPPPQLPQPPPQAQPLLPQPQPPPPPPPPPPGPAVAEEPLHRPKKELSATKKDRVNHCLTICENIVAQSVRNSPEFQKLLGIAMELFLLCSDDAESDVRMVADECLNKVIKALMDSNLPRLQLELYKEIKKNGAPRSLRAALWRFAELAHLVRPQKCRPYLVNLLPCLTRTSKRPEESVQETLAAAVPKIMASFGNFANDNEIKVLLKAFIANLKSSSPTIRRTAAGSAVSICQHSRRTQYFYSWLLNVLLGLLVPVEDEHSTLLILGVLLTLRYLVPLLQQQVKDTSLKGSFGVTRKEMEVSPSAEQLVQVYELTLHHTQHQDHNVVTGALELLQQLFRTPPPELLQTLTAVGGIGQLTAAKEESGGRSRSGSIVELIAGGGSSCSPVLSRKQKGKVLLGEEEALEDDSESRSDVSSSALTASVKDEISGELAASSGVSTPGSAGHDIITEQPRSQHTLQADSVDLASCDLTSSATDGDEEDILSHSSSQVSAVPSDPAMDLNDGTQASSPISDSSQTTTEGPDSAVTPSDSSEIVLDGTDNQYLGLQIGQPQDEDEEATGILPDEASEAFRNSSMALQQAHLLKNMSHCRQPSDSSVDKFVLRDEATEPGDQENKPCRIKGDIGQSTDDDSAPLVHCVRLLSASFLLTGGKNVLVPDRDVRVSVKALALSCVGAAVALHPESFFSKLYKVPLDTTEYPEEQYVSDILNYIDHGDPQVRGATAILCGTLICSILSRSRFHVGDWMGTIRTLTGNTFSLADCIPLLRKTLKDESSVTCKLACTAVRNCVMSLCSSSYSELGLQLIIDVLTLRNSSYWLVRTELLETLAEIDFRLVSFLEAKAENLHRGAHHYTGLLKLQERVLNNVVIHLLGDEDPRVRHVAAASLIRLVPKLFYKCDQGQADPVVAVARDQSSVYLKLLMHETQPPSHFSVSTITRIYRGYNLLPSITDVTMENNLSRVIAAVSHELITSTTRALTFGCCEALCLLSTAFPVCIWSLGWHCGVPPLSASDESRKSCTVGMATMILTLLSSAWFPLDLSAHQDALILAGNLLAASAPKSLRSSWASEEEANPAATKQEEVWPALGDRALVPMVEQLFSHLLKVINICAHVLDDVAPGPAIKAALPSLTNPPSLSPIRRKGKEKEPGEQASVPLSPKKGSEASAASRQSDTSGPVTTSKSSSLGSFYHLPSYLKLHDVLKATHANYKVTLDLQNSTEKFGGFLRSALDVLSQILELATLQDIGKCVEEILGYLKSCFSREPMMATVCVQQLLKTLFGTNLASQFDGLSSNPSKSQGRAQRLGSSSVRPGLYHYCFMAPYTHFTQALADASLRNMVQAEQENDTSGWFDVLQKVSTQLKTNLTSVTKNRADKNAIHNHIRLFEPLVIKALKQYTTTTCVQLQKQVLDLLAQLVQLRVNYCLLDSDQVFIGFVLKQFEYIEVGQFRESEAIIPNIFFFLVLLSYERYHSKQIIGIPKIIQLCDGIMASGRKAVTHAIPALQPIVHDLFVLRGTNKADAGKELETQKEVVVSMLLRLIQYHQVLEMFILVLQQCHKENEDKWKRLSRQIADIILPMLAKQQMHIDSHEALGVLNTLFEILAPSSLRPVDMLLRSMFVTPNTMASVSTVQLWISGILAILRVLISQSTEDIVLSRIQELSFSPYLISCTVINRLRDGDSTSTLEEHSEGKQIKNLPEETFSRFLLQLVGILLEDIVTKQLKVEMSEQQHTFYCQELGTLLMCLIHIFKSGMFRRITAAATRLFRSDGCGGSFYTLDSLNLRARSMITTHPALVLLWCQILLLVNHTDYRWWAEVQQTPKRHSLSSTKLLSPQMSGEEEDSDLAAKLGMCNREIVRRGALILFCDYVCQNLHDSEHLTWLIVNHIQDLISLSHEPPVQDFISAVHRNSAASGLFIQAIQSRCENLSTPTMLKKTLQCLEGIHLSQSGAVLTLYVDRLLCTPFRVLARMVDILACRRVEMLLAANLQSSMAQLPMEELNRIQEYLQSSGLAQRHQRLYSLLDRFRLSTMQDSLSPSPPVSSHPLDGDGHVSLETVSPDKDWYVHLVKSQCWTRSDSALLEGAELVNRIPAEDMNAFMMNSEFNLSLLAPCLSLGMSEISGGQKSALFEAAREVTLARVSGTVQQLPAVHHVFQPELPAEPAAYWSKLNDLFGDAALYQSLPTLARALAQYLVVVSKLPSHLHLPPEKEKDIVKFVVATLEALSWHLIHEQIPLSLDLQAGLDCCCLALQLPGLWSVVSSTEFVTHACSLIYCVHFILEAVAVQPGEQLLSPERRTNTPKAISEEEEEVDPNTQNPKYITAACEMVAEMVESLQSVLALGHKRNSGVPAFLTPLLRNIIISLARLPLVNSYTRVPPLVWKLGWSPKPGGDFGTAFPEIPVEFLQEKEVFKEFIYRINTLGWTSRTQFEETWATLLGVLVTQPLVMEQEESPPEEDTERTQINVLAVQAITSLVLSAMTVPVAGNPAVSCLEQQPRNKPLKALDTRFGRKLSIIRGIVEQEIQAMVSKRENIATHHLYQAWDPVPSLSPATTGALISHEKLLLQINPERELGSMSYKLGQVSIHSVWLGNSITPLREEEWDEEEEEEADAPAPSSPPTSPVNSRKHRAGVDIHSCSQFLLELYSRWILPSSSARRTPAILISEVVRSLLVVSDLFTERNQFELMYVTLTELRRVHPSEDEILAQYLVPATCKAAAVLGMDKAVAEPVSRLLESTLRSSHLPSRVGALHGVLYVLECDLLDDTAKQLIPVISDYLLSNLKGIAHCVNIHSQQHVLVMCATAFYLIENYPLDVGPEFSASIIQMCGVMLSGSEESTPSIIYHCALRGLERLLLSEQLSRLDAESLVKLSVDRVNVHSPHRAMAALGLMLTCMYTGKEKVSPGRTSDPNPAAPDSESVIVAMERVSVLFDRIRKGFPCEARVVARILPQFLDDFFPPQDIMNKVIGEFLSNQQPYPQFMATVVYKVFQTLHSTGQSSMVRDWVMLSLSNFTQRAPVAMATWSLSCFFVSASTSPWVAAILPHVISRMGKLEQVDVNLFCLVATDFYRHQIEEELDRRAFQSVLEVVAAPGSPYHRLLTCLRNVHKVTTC
Test: mutant huntingtin-calmodulin interaction inhibitors – biochemical, AlphaScreen, primary screen (AID 1671202)
Settings: AlphaScreen His-mHTT/GST-CaM binding, luminescence; at 15 µM
About 6,900 (3.6%) of roughly 190,000 compounds were called active. Rule as the data show it: active = inhibition above about 50%; inactive = the rest. Shown is part of a subset that was picked to be rich in actives.
Outcome codes: t for active, f for inactive

- compound: "CCc1nn(-c2ccc(F)cc2)c(CC)c1C(=O)N1CCN(C)CC1"
  assay-system: "Huntingtin (Homo sapiens) (UniProt P42858)"
  answer-label: "f"
- compound: "Cc1ccc2[nH]cc(CCN3CC(C(=O)N4CCN(c5ccccc5)CC4)CC3=O)c2c1 (stereo not given)"
  assay-system: "Huntingtin (Homo sapiens) (UniProt P42858)"
  answer-label: "f"
- compound: "Cc1ccc2[nH]cc(CCN3CC(C(=O)Nc4ccc(Br)cc4)CC3=O)c2c1 (stereo not given)"
  assay-system: "Huntingtin (Homo sapiens) (UniProt P42858)"
  answer-label: "t"
- compound: "O=C(Nc1ccccc1F)C1CC(=O)N(CCc2c[nH]c3ccc(F)cc23)C1 (stereo not given)"
  assay-system: "Huntingtin (Homo sapiens) (UniProt P42858)"
  answer-label: "f"
- compound: "Cc1ccc(NC(=O)C2CC(=O)N(CCc3c[nH]c4ccc(Cl)cc34)C2)c(C)c1 (stereo not given)"
  assay-system: "Huntingtin (Homo sapiens) (UniProt P42858)"
  answer-label: "t"
